Tested on: MS2 coat protein
Test Description: apparent Kd, MS2 coat protein; higher = weaker binding; RNA-MaP array; FMN 200 µM where present
Condition Summary: designed as: ON switch for flavin mononucleotide; no ligand
Readout Label: apparent Kd (nM)
Your answer is read as nM, so omit the unit and give the number.

Look over these answered cases.
UUACUCAUGUAAGGAUAUGCAGCCGAAACGGCUGCAGAAGGUACUAUAAUACAUGAGGAUCACCCAUGUAAAAUAAAUAAAGUC : 26.1
AAAUACGUAAAGGACACAUGAGGAUCACCCAUGUUUCUGUUCAAGGAUAUGAGGUGAAUGAUCCGUCAGAAGGUGAACUUGCUU : 117
GACUGAUUACAGAAGGUGUAAGACAUGAGGAUCACCCAUGUGAUAUAGGGUAUAUUUGAAUAUAACAAGGAUAUGUAUAAAUCA : 102
AAAAAACAUGAGGAUCACCCAUGUCCAAAAAAAAAAGGAUAUGCAAAAAAAAAAAAAAAAGCAGAAGGUUUAAAAA : 68.4

# input State the recorded apparent Kd for this entry: "UUAGAAUUGCAAGGAUAUCUAAUUUAGAUAGUAAGAGAAGGUGCUUGAUAGUUACAUGAGGAUCACCCAUGUUUUUGGGUUUAU"
# output 545

# input State the recorded apparent Kd for this entry: "GUAGCAUACGCAGGAUAUUCAUAUAAUAAAUAAACAUGAGGAUCACCCAUGUGGCGAAAGCCUUGGGAGAAGGGCGAAUGCUAC"
# output 485

# input State the recorded apparent Kd for this entry: "AACAUGGUACAGAAGGGCAAUUUAUUUAUUUAUUAUUUAGAACAGCAUUGCAGGAUAUGUUUAACAUGAGGAUCACCCAUGUAC"
# output 84.4

# input State the recorded apparent Kd for this entry: "GCAACGCCUGACAUGAGGAUCACCCAUGUUAGAUUGUUAUGUCAGGAUAUAGUCUAGAAACUAGACUAGAAGGGAUGUGUUGCU"
# output 703

# input State the recorded apparent Kd for this entry: "GUGCCUUGGGAGAAGGCAGUAUGCAAAGCAUCCUGAGGAUAUUCAUACCGGAAACGGACAUGAGGAUCACCCAUGUGGCACAAA"
# output 864

# input State the recorded apparent Kd for this entry: "CGAAAAUUUCAGAAGGACCGAUUCCACAUGAGGAUCACCCAUGUCGAUGGUAGGAUAUGGAGUUGUGGACAGGGCGGAUGUUCC"
# output 46.3

# input State the recorded apparent Kd for this entry: "GUAGCUAUCGGAGGAUAUUCAUACCGGAAACGGACAUGAGGAUCACCCAUGUGCCGAAAGGCUUGGGAGAAGGCCGAUAGCUAC"
# output 297

# input State the recorded apparent Kd for this entry: "GGAUCCAACACAGGAUAUGCUGGACUUUGUCCAGCAGAAGGGUGACAUGAGGAUCACCCAUGUAAUAGGAUCCAUAUAUUUAAU"
# output 624

# input State the recorded apparent Kd for this entry: "GCCCGGCCCGGGCCCACGGCAUCACAGGAUAUGCCGAUCACAUGAGGAUCACCCAUGUCAACUCCGCAGAAGGGUGAUAUCGUG"
# output 322

# input State the recorded apparent Kd for this entry: "UACGAUGUACAUGAGGAUCACCCAUGUCAUAUGCCCGUGACACAGGAUAUCCAGGAUAGGCCAAAGGAGAAGGGUGAUCCGCGG"
# output 66.9
